# test-description: Pharmacokinetic phase: plasma exposure after oral dosing in non-infected PXB mice
# Assay type: in vivo
# protocol-conditions: PXB, mouse, plasma, po, 30 mg/kg, non-infected PXB mice, 30 mg/kg p.o., 4 h, animal 403; read-out: Plasma conc.
measure-name: concentration at 4 h (ng/mL)
Numbers only, in ng/mL.

**Q:** Could you please provide reported concentration at 4 h for CCCCC1CN(c2ccccc2)c2cc(SC)c(O/C=C(\F)C(=O)O)cc2S(=O)(=O)N1C (stereo not shown) ? Thanks!
**A:** 217

* * *

# test-description: Pharmacokinetic phase: plasma exposure after oral dosing in non-infected PXB mice
# Format: in vivo
# protocol-conditions: PXB, mouse, plasma, po, 30 mg/kg, non-infected PXB mice, 30 mg/kg p.o., 1 h, animal 402; read-out: Plasma conc.
measure-name: concentration at 1 h (ng/mL)
Numbers only, in ng/mL.

**Q:** Could you please provide reported concentration at 1 h for CCCCC1CN(c2ccccc2)c2cc(SC)c(O/C=C(\F)C(=O)O)cc2S(=O)(=O)N1C (stereo not shown) ? Thanks!
**A:** 5320
